Attribution: patent US20220088180A1

# ASSAYED_TARGET: HLA-B*51:01 (human)
# PROTOCOL_SUMMARY: radioligand competition, purified MHC

BINDER: NATNVVIKV (modifications not checked) [… (SEQ ID NO: 37)]
UNIT_LABEL: nM
IC50: 536
--
BINDER: FASEAARVV (modifications not checked) [… (SEQ ID NO: 17)]
UNIT_LABEL: nM
IC50: 207
--
BINDER: KAFQLTPIAV (modifications not checked) [… (SEQ ID NO: 13)]
UNIT_LABEL: nM
IC50: 38700
